Tested on: human MRC-5 cells
procedure-details: MTT cytotoxicity assay
Type: cell-based
reported-conditions: MRC-5, MTT assay
For each record, write down the corresponding log10 TD90.
Heads up, the numbers here are log10 of TD90 in µM units.

Give reported log10 TD90 value for NC(=O)c1c(F)ccc(OCCC2COc3ccccc3O2)c1F (stereo not shown) [FZ88, reference compound] 2.35

Return log10 TD90 (reported value) for this compound: CC(COc1ccc(F)c(C(N)=O)c1F)C1COc2cc3c(cc2O1)CCCC3 (stereo not shown) [FZ119] 2.39

Complete the entry with log10 TD90 for NC(=O)c1c(F)ccc(OC[C@@H](O)[C@H]2COc3cc4c(cc3O2)CCCC4)c1F (relative stereo) 2.67

Input NC(=O)c1c(F)ccc(OCC2COc3ccccc3O2)c1F (stereo not shown) [FZ14, reference compound] , output reported log10 TD90. 1.70

Identify measured log10 TD90 corresponding to CC(COc1ccc(F)c(C(N)=O)c1F)C1COc2cc3c(cc2O1)CCCC3 (stereo not shown) [FZ118] 2.67

Recall and state the measured log10 TD90 for NC(=O)c1c(F)ccc(OC[C@H](O)[C@H]2COc3cc4c(cc3O2)CCCC4)c1F (relative stereo) . 2.67

Report measured log10 TD90; entry is NC(=O)c1c(F)ccc(OCCC2COc3cc4c(cc3O2)CCCC4)c1F (stereo not shown) 3.31

###

Tested on: B. subtilis strain WM5126
procedure-details: Spot viability assay on solid medium
Type: cell-based, Bacillus subtilis
reported-conditions: more potent compounds, Figure 4A
Source text: We further evaluated the most promising compounds on B. subtilis, a model Gram-positive species used previously in evaluating other benzamides, including by our research group. The B. subtilis strain WM5126 expresses a xylose-inducible GFP-tagged ZapA protein. […] We first tested the effects of the compounds on colony viability on solid medium (Figure 4). […] MIC values from microdilution experiments, shown in the right column in Figure 4, largely mirrored the spot viability data. […]
parameter: colony viability on solid medium, in words

NC(=O)c1c(F)ccc(OC[C@@H](O)[C@H]2COc3cc4c(cc3O2)CCCC4)c1F (relative stereo)	less effective
CC(COc1ccc(F)c(C(N)=O)c1F)C1COc2cc3c(cc2O1)CCCC3 (stereo not shown) [FZ118]	less effective

###

Tested on: methicillin-sensitive S. aureus (MSSA, ATCC29213)
procedure-details: MIC, broth dilution, MSSA ATCC 29213
Type: cell-based, Staphylococcus aureus
reported-conditions: Staphylococcus aureus; read-out: MIC vs S. aureus
parameter: MIC (µM)
The reply should be a number in µM, with the unit left off.

Assign MIC to the following record: CC(COc1ccc(F)c(C(N)=O)c1F)C1COc2cc3c(cc2O1)CCCC3 (stereo not drawn) 9.9

Please give measured MIC of the following entry: CC(Oc1ccc(F)c(C(N)=O)c1F)C1COc2ccccc2O1 (stereo not drawn) 191

Retrieve MIC measured for NC(=O)c1c(F)ccc(OC[C@H](O)[C@H]2COc3ccccc3O2)c1F (relative stereo) and print it. 364

###

System: methicillin-sensitive S. aureus (MSSA, ATCC29213)
procedure-details: MIC, broth dilution, MSSA ATCC 29213
Assay type: cell-based, Staphylococcus aureus
reported-conditions: Staphylococcus aureus, 20 h, MSSA ATCC 29213; 20 h at 35 °C; read-out: MIC
Method: As described in our previous work, we evaluated all the compounds mentioned above on different S. aureus strains. […] We analyzed the MICs and, if the antibacterial activity was promising, we also determined the percentage of cytotoxicity using the MTT assay on human MRC-5 cells and reported it as TD90. […] The detailed protocol is identical to what was previously reported. […] MIC values were determined visually as the lowest compound dilution with no turbidity. […]
Provide the reported log10 of MIC of each item.
Transform log10 | Measure MIC | Unit µM

Could you please provide reported log10 of MIC for NC(=O)c1c(F)ccc(OCCC2COc3ccccc3O2)c1F (stereo not drawn) [FZ88, reference compound] ? Thanks! 1.17

Please look at this compound and report its log10 of MIC: NC(=O)c1c(F)ccc(OC[C@@H](O)[C@H]2COc3ccccc3O2)c1F (relative stereo) 2.56

Read off the recorded log10 of MIC for NC(=O)c1c(F)ccc(OCCC2COc3cc4c(cc3O2)CCCC4)c1F (stereo not drawn) -0.60

Give a short answer stating reported log10 of MIC for CC(COc1ccc(F)c(C(N)=O)c1F)C1COc2cc3c(cc2O1)CCCC3 (stereo not drawn) . 1.00

Give a short answer stating reported log10 of MIC for NC(=O)c1c(F)ccc(OC[C@H](O)[C@H]2COc3cc4c(cc3O2)CCCC4)c1F (relative stereo) . 0.69

Specify reported log10 of MIC for the compound shown: C[C@H](Oc1ccc(F)c(C(N)=O)c1F)[C@H]1COc2ccccc2O1 (relative stereo) 1.38

###

Test system: B. subtilis strain WM5126
procedure-details: MIC from broth microdilution
Format: cell-based, Bacillus subtilis
reported-conditions: Bacillus subtilis, value in brackets
parameter: MIC (µM)
Give the quantity in µM, number only.

Query MIC for NC(=O)c1c(F)ccc(OC[C@H](O)[C@H]2COc3ccccc3O2)c1F (relative stereo) 21

Report MIC for CC(COc1ccc(F)c(C(N)=O)c1F)C1COc2ccccc2O1 (stereo not shown) 42

Answer with the recorded MIC of NC(=O)c1c(F)ccc(OC[C@@H](O)[C@H]2COc3cc4c(cc3O2)CCCC4)c1F (relative stereo) only. 2.7

Look up MIC of C[C@H](Oc1ccc(F)c(C(N)=O)c1F)[C@H]1COc2ccccc2O1 (relative stereo) and report it. 11

Indicate its recorded MIC; the compound in question is NC(=O)c1c(F)ccc(OC[C@@H](O)[C@H]2COc3ccccc3O2)c1F (relative stereo) 42

###

Exercise: state measured MIC for each of the molecules provided.
Test system: methicillin-sensitive S. aureus (MSSA, ATCC29213)
procedure-details: MIC, broth dilution, MSSA ATCC 29213
Assay type: cell-based, Staphylococcus aureus
reported-conditions: Staphylococcus aureus, 20 h, MSSA ATCC 29213; 20 h at 35 °C; read-out: MIC
Method: As described in our previous work, we evaluated all the compounds mentioned above on different S. aureus strains. […] We analyzed the MICs and, if the antibacterial activity was promising, we also determined the percentage of cytotoxicity using the MTT assay on human MRC-5 cells and reported it as TD90. […] The detailed protocol is identical to what was previously reported. […] MIC values were determined visually as the lowest compound dilution with no turbidity. […]
Reply numerically in µM, unit not repeated.

Under methicillin-sensitive S. aureus (MSSA, ATCC29213): report MIC of NC(=O)c1c(F)ccc(OC[C@H](O)[C@H]2COc3ccccc3O2)c1F (relative stereo) [FZ112] . 364

# assay system methicillin-sensitive S. aureus (MSSA, ATCC29213): give MIC of CC(Oc1ccc(F)c(C(N)=O)c1F)C1COc2ccccc2O1 (stereo not shown) [FZ105] 191

State MIC (methicillin-sensitive S. aureus (MSSA, ATCC29213)) of NC(=O)c1c(F)ccc(OC[C@@H](O)[C@H]2COc3cc4c(cc3O2)CCCC4)c1F (relative stereo) [FZ117] . 19.7

# assay system methicillin-sensitive S. aureus (MSSA, ATCC29213): give MIC of NC(=O)c1c(F)ccc(OCC2COc3ccccc3O2)c1F (stereo not shown) [FZ14, reference compound] 15.6

###

Tested on: methicillin-sensitive S. aureus (MSSA, ATCC29213)
procedure-details: MIC, broth dilution, MSSA ATCC 29213
Assay type: cell-based, Staphylococcus aureus
reported-conditions: Staphylococcus aureus; read-out: MIC vs S. aureus
parameter: MIC (µM)
# value in µM; strip the unit string

Give the reported MIC for this molecule. NC(=O)c1c(F)ccc(OC[C@@H](O)[C@H]2COc3cc4c(cc3O2)CCCC4)c1F (relative stereo) 19.7

Retrieve MIC measured for NC(=O)c1c(F)ccc(OC[C@@H](O)[C@H]2COc3ccccc3O2)c1F (relative stereo) and print it. 364

# return recorded MIC for input NC(=O)c1c(F)ccc(OC[C@H](O)[C@H]2COc3cc4c(cc3O2)CCCC4)c1F (relative stereo) 4.9

Give the measured MIC for C[C@H](Oc1ccc(F)c(C(N)=O)c1F)[C@H]1COc2ccccc2O1 (relative stereo) 23.9
